system: KM20L2; test: cells; format: cell-based, human; details: KM20L2
Overview of recorded Colon KM20L2 GI50 for various molecules

A selection of reference data follows.
COc1ccc(/C=C\c2cc(OC)c3c(c2)OCO3)cc1NC(=O)[C@H](Cc1ccc(OP(=O)(OCc2ccccc2)OCc2ccccc2)cc1)NC(=O)OCc1ccccc1    >10 µg/mL
COc1ccc(/C=C\c2cc(OC)c3c(c2)OCO3)cc1NC(=O)[C@H](Cc1ccc(OC(C)(C)C)cc1)NC(=O)OCc1ccccc1    1.8 µg/mL
COc1ccc(/C=C\c2cc(OC)c3c(c2)OCO3)cc1NC(=O)[C@@H](N)Cc1ccc(OP(=O)(O)O)cc1    >1 µg/mL

Req: Consider the molecule shown here: `CC[C@H](C)[C@@H]([C@@H](CC(=O)N1CCC[C@H]1[C@H](OC)[C@@H](C)C(=O)Nc1cc(/C=C\c2cc(OC)c3c(c2)OCO3)ccc1OC)OC)N(C)C(=O)[C@@H](NC(=O)[C@H](C(C)C)N(C)C)C(C)C` What is its recorded Colon KM20L2 GI50?
Resp: 0.020 µg/mL

###

system: DU145; assay: cells; assay type: cell-based, human; settings: DU145
Overview of recorded Prostate DU145 GI50 for various compounds
Record the value in µg/mL, omitting the unit from your answer.

CC[C@H](C)[C@@H]([C@@H](CC(=O)N1CCC[C@H]1[C@H](OC)[C@@H](C)C(=O)Nc1cc(/C=C\c2cc(OC)c3c(c2)OCO3)ccc1OC)OC)N(C)C(=O)[C@@H](NC(=O)[C@H](C(C)C)N(C)C)C(C)C [Compound 16]    0.032

Turning now to a further record.
Req: Consider the compound shown here: COc1ccc(/C=C\c2cc(OC)c3c(c2)OCO3)cc1NC(=O)[C@H](Cc1ccc(OC(C)(C)C)cc1)NC(=O)OCc1ccccc1 [Compound 7] What is its recorded Prostate DU145 GI50?
Resp: 0.39

###

experiment: Solubility in distilled water; format: physicochemical; conditions: 1 mL distilled water at 25° C.
assay.readout: solubility

COc1ccc(/C=C\c2cc(OC)c3c(c2)OCO3)cc1NC(=O)[C@@H](N)Cc1ccc(O)cc1.Cl    < 100 µg/mL

Req: Consider the compound shown here: `COc1ccc(/C=C\c2cc(OC)c3c(c2)OCO3)cc1NC(=O)[C@@H](N)CC(=O)[O-].[Na+]` What is its recorded solubility?
Resp: < 100 µg/mL

###

test system: P388 lymphocytic leukemia cell line; assay type: cell-based; conditions: murine P388 lymphocytic leukemia cell line
assay.readout: Leukemia P388 ED50 (µg/mL)
Record the value in µg/mL, omitting the unit from your answer.

COc1ccc(/C=C\c2cc(OC)c3c(c2)OCO3)cc1NC(=O)[C@H](C)[C@@H](OC)[C@@H]1CCCN1C(=O)OC(C)(C)C [Compound 13]    0.225
COc1ccc(/C=C\c2cc(OC)c3c(c2)OCO3)cc1NC(=O)[C@H](Cc1ccc(OC(C)(C)C)cc1)NC(=O)OCc1ccccc1 [Compound 7]    0.380

Req: Consider the compound shown here: COc1ccc(/C=C\c2cc(OC)c3c(c2)OCO3)cc1NC(=O)[C@H](Cc1ccc(OP(=O)(OCc2ccccc2)OCc2ccccc2)cc1)NC(=O)OCc1ccccc1 [Compound 8] What is its recorded Leukemia P388 ED50?
Resp: 0.133

Req: Consider the compound shown here: COc1ccc(/C=C\c2cc(OC)c3c(c2)OCO3)cc1NC(=O)[C@H](CC(=O)OC(C)(C)C)NC(=O)OC(C)(C)C [Compound 10] What is its recorded Leukemia P388 ED50?
Resp: 0.385

Req: Consider the compound shown here: COc1ccc(/C=C\c2cc(OC)c3c(c2)OCO3)cc1NC(=O)[C@@H](N)Cc1ccc(O)cc1.Cl [Compound 9] What is its recorded Leukemia P388 ED50?
Resp: 0.0329
